protocol-summary: ATH8 cell viability
experimental-parameters: human, ath8 cells
quantity-measured: CC50 (µM)
Unit µM implied. Number only.

Query block: Which CC50 reading was recorded for the compound Cc1cc(CCCCCCCOc2ccc(C3=NCCO3)s2)on1 [Compound A] ?
Result block: 35

----------
protocol-summary: ATH8 cell viability
experimental-parameters: human, ath8 cells
quantity-measured: CC50 at 240 h (µM)
Give the value, in units of µM, as a plain number.

Query block: Returns the measured CC50 at 240 h for the input compound. Input: `Cc1cc(CCCCCCCOc2ccc(C3=NCCO3)s2)on1`
Result block: 35

Every entry's value here was drawn from patent US4812472A.
